Biological target: Factor D (Homo sapiens (Human), UniProt P00746)
Sequence (P00746 26-253): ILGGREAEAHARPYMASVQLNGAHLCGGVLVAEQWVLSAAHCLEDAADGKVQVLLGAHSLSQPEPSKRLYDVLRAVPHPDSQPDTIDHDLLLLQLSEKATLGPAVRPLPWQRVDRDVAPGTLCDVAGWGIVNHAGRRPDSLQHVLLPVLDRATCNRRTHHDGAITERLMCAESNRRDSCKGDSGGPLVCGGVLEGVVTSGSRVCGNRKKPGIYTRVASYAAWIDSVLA
Assay: biochemical
Type: biochemical
Details: read-out: IC50
measure: pIC50
// field semantics: pIC50 = negative decimal log of concentration (mol/L)

Consider the following illustrative entries.
structureSmiles | pIC50
NC(=O)c1cn(CC(=O)N2C[C@H](F)C[C@H]2C(=O)NCc2cccc(Cl)c2F)c2cc(OCc3nn[nH]n3)ccc12 | 7.77
CNC(=O)c1cn(CC(=O)N2C[C@H](F)C[C@H]2C(=O)NCc2cccc(Cl)c2F)c2ccccc12 | 6.14

Let us move to another entry and its pIC50.
Exercise: // query pIC50 value for entry `CCOC(=O)Cc1ccc2c(NC(=O)N3[C@@H]4C[C@@H]4C[C@H]3C(=O)NCc3cccc(Cl)c3F)cn(C(N)=O)c2c1`
Key: 7.89

---

Target: Factor D (Homo sapiens (Human))
Test: biochemical
Format: biochemical
Conditions: read-out: IC50
pIC50: −log10 of the molar value.
Decide using pIC50: a value greater than or equal to 7 is yes, a smaller one is no.

molecule | answerLabel
CC(=O)c1cn(CC(=O)N2C[C@H](F)C[C@H]2C(=O)NCc2cccc(Cl)c2F)c2ncccc12 | yes
CC(=O)c1nn(CC(=O)N2[C@@H]3C[C@@H]3C[C@H]2C(=O)NCc2cccc(Cl)c2F)c2cnccc12 | yes
N#CCOc1ccc2c(c1)c(NC(=O)N1[C@@H]3C[C@@H]3C[C@H]1C(=O)NCc1cccc(Cl)c1F)cn2C(N)=O | yes
NC(=O)n1cc(NC(=O)N2C[C@@H](N)[C@H](F)[C@H]2C(=O)NCc2cccc(Cl)c2F)c2ccccc21 | yes

Exercise: Please indicate if the recorded pIC50 for `NC(=O)n1cc(NC(=O)N2[C@@H]3C[C@@H]3C[C@H]2C(=O)Nc2cccc(OC(F)(F)F)c2)c2cc(OCCO)ccc21` meets or exceeds 7.
Key: yes

Exercise: Please indicate if the recorded pIC50 for `CC(=O)c1cn(CC(=O)N2C[C@](C)(F)C[C@H]2C(=O)NCc2cccc(Cl)c2F)c2cnccc12` meets or exceeds 7.
Key: no

Exercise: Please indicate if the recorded pIC50 for NC(=O)n1cc(NC(=O)N2C[C@@H](N)C[C@H]2C(=O)NCC(O)c2ccccc2)c2ccccc21 (some centres unmarked) meets or exceeds 7.
Key: no

Exercise: Please indicate if the recorded pIC50 for `Cc1nccc2c(C(N)=O)nn(CC(=O)N3[C@@H]4C[C@@H]4C[C@H]3C(=O)NCc3cccc(Cl)c3F)c12` meets or exceeds 7.
Key: yes

Exercise: Please indicate if the recorded pIC50 for `C=CCOc1ccc2c(c1)c(NC(=O)N1[C@@H]3C[C@@H]3C[C@H]1C(=O)NCc1cccc(Cl)c1F)cn2C(N)=O` meets or exceeds 7.
Key: yes

---

Biological target: Factor D (Homo sapiens (Human))
Experiment: biochemical
Type: biochemical
Details: read-out: IC50
Rule for this label: fulfilled means IC50 is less than 400 nM; not fulfilled means IC50 is at least 400 nM.

Please review the following examples before continuing.
structureSmiles | answerLabel
CNC(=O)c1cc(Cl)c(F)c(CNC(=O)[C@@H]2C[C@@H](F)CN2C(=O)Nc2cn(C(N)=O)c3ccccc23)c1 | fulfilled
Cc1ncc(NC(=O)[C@@H]2C[C@@H](F)CN2C(=O)Nc2cn(C(N)=O)c3ccccc23)cc1Br | fulfilled
NC(=O)n1cc(NC(=O)N2CCC[C@H]2C(=O)Nc2cccc(OC(F)(F)F)c2)c2cc(O)ccc21 | fulfilled
CCOC(=O)[C@H](CC1CCCCC1)NC(=O)[C@@H]1C[C@H]2C[C@H]2N1C(=O)Cn1nc(C(C)=O)c2cccnc21 | fulfilled
NC(=O)n1cc(NC(=O)N2[C@@H]3C[C@@H]3C[C@H]2C(=O)NCc2cccc(Cl)c2F)c2cc(OCCO)ccc21 | fulfilled

Exercise: # check: IC50 < 400 nM for `CC1(C)SC[C@@H](C(=O)Nc2cccc(OC(F)(F)F)c2)N1C(=O)Nc1cn(C(N)=O)c2ccccc12`
Key: not fulfilled

Exercise: # check: IC50 < 400 nM for `NC(=O)n1cc(CC(=O)N2[C@@H]3C[C@@H]3C[C@H]2C(=O)NCc2ccc(Cl)s2)c2ccccc21`
Key: fulfilled

Exercise: # check: IC50 < 400 nM for `CO[C@H]1[C@@H](C(=O)N[C@@H](C)c2cccc(Cl)c2F)N(C(=O)Cn2cc(C(C)=O)c3ccccc32)C[C@@H]1F`
Key: fulfilled

Exercise: # check: IC50 < 400 nM for `NC(=O)n1cc(NC(=O)N2CCC[C@H]2C(=O)Nc2cc(-c3ccccc3)no2)c2ccccc21`
Key: not fulfilled

Exercise: # check: IC50 < 400 nM for `CCC(=O)c1cn(CC(=O)N2[C@@H]3C[C@@H]3C[C@H]2C(=O)NCc2cccc(Cl)c2F)c2cnccc12`
Key: fulfilled

Exercise: # check: IC50 < 400 nM for `NC(=O)n1cc(NC(=O)N2CC[C@H](F)[C@H]2C(=O)NCc2cccc(Cl)c2)c2ccccc21`
Key: fulfilled

Exercise: # check: IC50 < 400 nM for `NC(=O)n1cc(NC(=O)N2CC[C@@H](N)[C@H]2C(=O)N[C@@H](c2cccc(Cl)c2F)C(F)(F)F)c2ccccc21`
Key: not fulfilled

Exercise: # check: IC50 < 400 nM for `NC(=O)n1cc(NC(=O)N2CCS[C@H]2C(=O)Nc2cncc(Cl)c2)c2ccccc21`
Key: not fulfilled

Exercise: # check: IC50 < 400 nM for `NC(=O)c1cn(CC(=O)N2C[C@@](F)(CO)C[C@H]2C(=O)NCc2cccc(Cl)c2F)c2ccccc12`
Key: not fulfilled
